Test system: LOU-NH91
Assay: relative viability (nuclei count vs DMSO), 5 days (fraction); higher = more cells survive
Conditions: first compound 4 µM
MEASURED_ATTRIBUTE: relative viability
Answer as a number with no unit attached.

Solved cases below.
molecule="C[C@@H]1CN(CC(=O)Nc2ccc3c(c2)Cc2cccc(-c4cc(=O)cc(N5CCOCC5)o4)c2S3)C[C@H](C)O1 + CC(=O)Nc1cccc(-n2c(=O)n(C3CC3)c(=O)c3c(Nc4ccc(I)cc4F)n(C)c(=O)c(C)c32)c1 [Trametinib] (partner 0.02 µM)" value_reported=0.715
molecule="COc1cc(N2CCC(C(N)=O)CC2)ccc1Nc1nc(N)c(Cl)c(Nc2ccccc2S(=O)(=O)C(C)C)n1 [HG-5-88-01] + O=C(c1cc(Cc2n[nH]c(=O)c3ccccc23)ccc1F)N1CCN(C(=O)C2CC2)CC1 [Olaparib] (partner 8 µM)" value_reported=0.618
molecule="C[C@@H]1CN(CC(=O)Nc2ccc3c(c2)Cc2cccc(-c4cc(=O)cc(N5CCOCC5)o4)c2S3)C[C@H](C)O1 + NC(=O)Nc1cc(-c2cccc(F)c2)sc1C(=O)N[C@H]1CCCNC1 [AZD7762] (partner 0.2 µM)" value_reported=0.706
molecule="COc1cc(N2CCC(C(N)=O)CC2)ccc1Nc1nc(N)c(Cl)c(Nc2ccccc2S(=O)(=O)C(C)C)n1 [HG-5-88-01] + Cc1nc(Nc2ncc(C(=O)Nc3c(C)cccc3Cl)s2)cc(N2CCN(CCO)CC2)n1 [Dasatinib] (partner 0.075 µM)" value_reported=0.243
molecule="Clc1ccc(Nc2nnc(Cc3ccncc3)c3ccccc23)cc1 [Vatalanib] + CS(=O)(=O)CCNCc1ccc(-c2ccc3ncnc(Nc4ccc(OCc5cccc(F)c5)c(Cl)c4)c3c2)o1 [Lapatinib] (partner 2 µM)" value_reported=0.664

Consider the molecule C[C@@H]1CN(CC(=O)Nc2ccc3c(c2)Cc2cccc(-c4cc(=O)cc(N5CCOCC5)o4)c2S3)C[C@H](C)O1 + CC(C)C[C@H](NC(=O)[C@H](Cc1ccccc1)NC(=O)c1cnccn1)B(O)O [Bortezomib] (partner 0.002 µM) and give its measured relative viability.
0.527

And the next one, C[C@@H]1CN(CC(=O)Nc2ccc3c(c2)Cc2cccc(-c4cc(=O)cc(N5CCOCC5)o4)c2S3)C[C@H](C)O1 + C[C@@H](Oc1cc(-c2cnn(C3CCNCC3)c2)cnc1N)c1c(Cl)ccc(F)c1Cl [Crizotinib] (partner 1 µM) ?
0.72

And the next one, COc1cc(N2CCC(C(N)=O)CC2)ccc1Nc1nc(N)c(Cl)c(Nc2ccccc2S(=O)(=O)C(C)C)n1 [HG-5-88-01] + N=C(N)NC(=N)NCCc1ccccc1 [Phenformin] (partner 250 µM) ?
0.416
